Test: chemical genetic growth profiling, strain panel (AID 1159580);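 further: tested at 20 µM; growth read once vehicle control cultures reached saturation at 30 °C; 1 = growth at the plate median or of vehicle wells; lower values mean less growth of the strain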
Conditions: S. cerevisiae deletion strains, growth OD, locus YNL250W, strain rad50, stronger effect = lower value
Screen size: about 5,500 compounds; about 2,000 (36%) were called active. Another 18% or so got no clear call; they are omitted. The list shows a part of the results.
# key: entry, value: normalized growth

{"columns": ["MOLECULE", "normalized growth"],
 "data": [
  ["COc1ccc2c(c1)OCC(Cc1ccc(OC)c(OC(C)=O)c1)C2=O (centres undefined)", 1.01],
  ["C=C[C@@]1(C)CC(=O)[C@@]2(O)[C@](C)(O1)[C@@H](OC(C)=O)[C@@H](O)C1C(C)(C)CC[C@H](O)[C@@]12C (some centres undefined)", 0.972],
  ["COC[C@]12CN(C=O)C3[C@@H]4[C@H](OC)C1[C@]3(C1CC3(O)C(OC)C(O)C4(OC(C)=O)C1C3OC(=O)c1ccccc1)[C@@H](OC)C[C@H]2O (some centres undefined)", 1.04],
  ["COC1=CC(=O)OC(CCc2ccc(OC)c(OC)c2)C1 (centres undefined)", 1.01]
]}
